List of The number of deaths per day course values.
Test system: Male ddy mice
test.protocol: Simplified acute toxicity test of N-acetylneuraminates in mice by intravenous injection
Type: in vivo
reported.conditions: 500 mg/kg i.v.; 6 days
quantity.kind: The number of deaths per day course

CC(=O)N[C@H]1[C@H]([C@H](O)[C@H](O)CO)OC(O)(C(=O)[O-])C[C@@H]1O.[K+] (stereo partly shown) [Potassium N-acetylneuraminate] = 0
CC(=O)N[C@H]1[C@H]([C@H](O)[C@H](O)CO)OC(O)(C(=O)O)C[C@@H]1O (stereo partly shown) [Magnesium N-acetylneuraminate] = 0
CC(=O)N[C@H]1[C@H]([C@H](O)[C@H](O)CO)OC(O)(C(=O)[O-])C[C@@H]1O.[Li+] (stereo partly shown) [Lithium N-acetylneuraminate] = 0
CC(=O)N[C@H]1[C@H]([C@H](O)[C@H](O)CO)OC(O)(C(=O)O)C[C@@H]1O (stereo partly shown) [Barium N-acetylneuraminate] = 0

* * *

System: Male ddy mice
test.protocol: Simplified acute toxicity test of N-acetylneuraminates in mice by intravenous injection
Format: in vivo
reported.conditions: 2000 mg/kg i.v., 7 days
quantity.kind: Final Lethality

CC(=O)N[C@H]1[C@H]([C@H](O)[C@H](O)CO)OC(O)(C(=O)O)C[C@@H]1O (stereo partly shown) [Magnesium N-acetylneuraminate] = 3/3
CC(=O)N[C@H]1[C@H]([C@H](O)[C@H](O)CO)OC(O)(C(=O)[O-])C[C@@H]1O.[Li+] (stereo partly shown) [Lithium N-acetylneuraminate] = 0/3
CC(=O)N[C@H]1[C@H]([C@H](O)[C@H](O)CO)OC(O)(C(=O)[O-])C[C@@H]1O.[K+] (stereo partly shown) [Potassium N-acetylneuraminate] = 3/3
CC(=O)N[C@H]1[C@H]([C@H](O)[C@H](O)CO)OC(O)(C(=O)O)C[C@@H]1O (stereo partly shown) [Barium N-acetylneuraminate] = 3/3

* * *

System: Male ddy mice
test.protocol: Simplified acute toxicity test of N-acetylneuraminates in mice by intravenous injection
Type: in vivo
reported.conditions: 500 mg/kg i.v.; 5 days
List of The number of deaths per day course values.
quantity.kind: The number of deaths per day course

CC(=O)N[C@H]1[C@H]([C@H](O)[C@H](O)CO)OC(O)(C(=O)[O-])C[C@@H]1O.[K+] (stereo partly shown) [Potassium N-acetylneuraminate] = 0
CC(=O)N[C@H]1[C@H]([C@H](O)[C@H](O)CO)OC(O)(C(=O)O)C[C@@H]1O (stereo partly shown) [Barium N-acetylneuraminate] = 0
CC(=O)N[C@H]1[C@H]([C@H](O)[C@H](O)CO)OC(O)(C(=O)[O-])C[C@@H]1O.[Li+] (stereo partly shown) [Lithium N-acetylneuraminate] = 0
CC(=O)N[C@H]1[C@H]([C@H](O)[C@H](O)CO)OC(O)(C(=O)O)C[C@@H]1O (stereo partly shown) [Magnesium N-acetylneuraminate] = 0

* * *

System: Male ddy mice
test.protocol: Simplified acute toxicity test of N-acetylneuraminates in mice by intravenous injection
Format: in vivo
reported.conditions: 1000 mg/kg i.v., 7 days
quantity.kind: Final Lethality

CC(=O)N[C@H]1[C@H]([C@H](O)[C@H](O)CO)OC(O)(C(=O)[O-])C[C@@H]1O.[Li+] (stereo partly shown) [Lithium N-acetylneuraminate] = 0/3
CC(=O)N[C@H]1[C@H]([C@H](O)[C@H](O)CO)OC(O)(C(=O)[O-])C[C@@H]1O.[K+] (stereo partly shown) [Potassium N-acetylneuraminate] = 3/3
CC(=O)N[C@H]1[C@H]([C@H](O)[C@H](O)CO)OC(O)(C(=O)O)C[C@@H]1O (stereo partly shown) [Barium N-acetylneuraminate] = 3/3
CC(=O)N[C@H]1[C@H]([C@H](O)[C@H](O)CO)OC(O)(C(=O)O)C[C@@H]1O (stereo partly shown) [Magnesium N-acetylneuraminate] = 3/3
